target: HCV NS3/NS4a serine protease (Hepatitis C virus genotype 1b, UniProt P26663)
Construct: amino terminus of the NS3 protease domain (amino acids 3-181) with a tetrapeptide linker; made in house; host or cells: E. coli
Sequence (P26663 1013-1207, looked up, natural form): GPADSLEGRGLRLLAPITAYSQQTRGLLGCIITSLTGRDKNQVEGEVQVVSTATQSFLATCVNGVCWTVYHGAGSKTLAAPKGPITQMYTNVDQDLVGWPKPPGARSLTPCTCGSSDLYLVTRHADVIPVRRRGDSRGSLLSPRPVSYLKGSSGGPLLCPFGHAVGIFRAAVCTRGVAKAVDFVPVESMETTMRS
measurement.description: Spectrophotometric assay for HCV protease inhibitory activity (chromogenic ester substrates)
Assay type: biochemical, hepatitis C virus (strain 1b)
measurement.conditions: Ki, Table 3; rating; single chain NS4A21-32-GSGS-NS3 3-181 protease, 30° C., pH 6.5
pKi: −log10 of the molar value.
measurement.label: pKi

What measured pKi is associated with CN(C[C@@H](NC(=O)N[C@H](C(=O)N1C[C@H]2[C@@H]([C@H]1C(=O)N[C@@H](CC(F)F)C(=O)N[C@H]1CCCC[C@H]1OCc1ccccc1)C2(C)C)C(C)(C)C)C(C)(C)C)S(C)(=O)=O [Example 256] on HCV NS3/NS4a serine protease (Hepatitis C virus genotype 1b, UniProt P26663)?
< 6.30

Short answer please: pKi, HCV NS3/NS4a serine protease (Hepatitis C virus genotype 1b, UniProt P26663), entry CCN(CC)CCNC(=O)[C@H](CC(F)F)NC(=O)[C@@H]1[C@@H]2[C@H](CN1C(=O)[C@@H](NC(=O)N[C@H](CN(C)S(C)(=O)=O)C(C)(C)C)C(C)(C)C)C2(C)C [Example 234]
< 6.30

Any idea what pKi came out for COc1cc(CCNC(=O)[C@H](CC(F)F)NC(=O)[C@@H]2[C@@H]3[C@H](CN2C(=O)[C@@H](NC(=O)N[C@H](CN(C)S(C)(=O)=O)C(C)(C)C)C(C)(C)C)C3(C)C)cc(OC)c1 [Example 278] on HCV NS3/NS4a serine protease (Hepatitis C virus genotype 1b, UniProt P26663)?
6.30 to 7.00

Provide value of pKi for this record tested with HCV NS3/NS4a serine protease (Hepatitis C virus genotype 1b, UniProt P26663): CN(C[C@@H](NC(=O)N[C@H](C(=O)N1C[C@H]2[C@@H]([C@H]1C(=O)N[C@@H](CC(F)F)C(=O)N[C@@H]1CCC[C@H]1OCc1ccccc1)C2(C)C)C(C)(C)C)C(C)(C)C)S(C)(=O)=O [Example 254]
< 6.30

Return pKi measured with HCV NS3/NS4a serine protease (Hepatitis C virus genotype 1b, UniProt P26663) given this compound: CC(O)CNC(=O)[C@H](CC(F)F)NC(=O)[C@@H]1[C@@H]2[C@H](CN1C(=O)[C@@H](NC(=O)N[C@H](CN(C)S(C)(=O)=O)C(C)(C)C)C(C)(C)C)C2(C)C (some centres unmarked) [Example 231]
< 6.30
